# S. aureus MsrA PUL 5054: MIC values follow

Ask | Identify MIC associated with the molecule CN[C@H](CC(C)C)C(=O)N[C@H]1C(=O)N[C@@H](CC(N)=O)C(=O)N[C@H]2C(=O)N[C@H]3C(=O)N[C@H](C(=O)N[C@H](C(=O)O)c4cc(O)cc(O)c4-c4cc3ccc4O)[C@H](O)c3ccc(c(Cl)c3)Oc3cc2cc(c3OC2OC(CO)C(O)C(O)C2OC2CC(C)(NCCNc3ccnc4cc(Cl)ccc34)C(O)C(C)O2)Oc2ccc(cc2Cl)[C@H]1O (stereo partly shown)
Reply | < 0.045 µg/mL

Ask | Tell me MIC reported for CN[C@H](CC(C)C)C(=O)N[C@H]1C(=O)N[C@@H](CC(N)=O)C(=O)N[C@H]2C(=O)N[C@H]3C(=O)N[C@H](C(=O)N[C@H](C(=O)O)c4cc(O)cc(O)c4-c4cc3ccc4O)[C@H](O)c3ccc(c(Cl)c3)Oc3cc2cc(c3OC2OC(CO)C(O)C(O)C2OC2CC(C)(NCCCCNc3ccnc4cc(Cl)ccc34)C(O)C(C)O2)Oc2ccc(cc2Cl)[C@H]1O (stereo partly shown)
Reply | < 0.045 µg/mL

Ask | Quick one: give measured MIC for CN[C@H](CC(C)C)C(=O)N[C@H]1C(=O)N[C@@H](CC(N)=O)C(=O)N[C@H]2C(=O)N[C@H]3C(=O)N[C@H](C(=O)N[C@H](C(=O)O)c4cc(O)cc(O)c4-c4cc3ccc4O)[C@H](O)c3ccc(c(Cl)c3)Oc3cc2cc(c3O[C@@H]2O[C@H](CO)[C@@H](O)[C@H](O)[C@H]2O[C@H]2C[C@](C)(N)[C@H](O)[C@H](C)O2)Oc2ccc(cc2Cl)[C@H]1O [Vancomycin, reference compound]
Reply | 0.75 µg/mL

Ask | Look up and state reported MIC for CN[C@H](CC(C)C)C(=O)N[C@H]1C(=O)N[C@@H](CC(N)=O)C(=O)N[C@H]2C(=O)N[C@H]3C(=O)N[C@H](C(=O)N[C@H](C(=O)O)c4cc(O)cc(O)c4-c4cc3ccc4O)[C@H](O)c3ccc(c(Cl)c3)Oc3cc2cc(c3OC2OC(CO)C(O)C(O)C2OC2CC(C)(NCc3ccc(OCCNc4ccnc5cc(Cl)ccc45)cc3)C(O)C(C)O2)Oc2ccc(cc2Cl)[C@H]1O (stereo partly shown)
Reply | < 0.045 µg/mL

---

- Test system: H. influenzae CIP 102514
- procedure details: Antibacterial activity (MIC/MBC)
- Assay type: cell-based, Haemophilus influenzae
- condition info: Haemophilus influenzae, CIP102514; H. influenzae CIP 102514; read-out: MIC
readout name: log10 MIC (log10 of the value in µg/mL)
// do not treat as linear: log10 of MIC, unit µg/mL

Ask | Tell me measured log10 MIC for `Cl.O=C(O)c1cn(C2CC2)c2cc(N3CCN(CCNc4ccnc5cc(Cl)ccc45)CC3)c(F)cc2c1=O` please.
Reply | -0.81

Ask | Please look at this molecule and report its log10 MIC: O=C(O)CNc1ccnc2cc(Cl)ccc12 [PA 1117, (7-Chloroquinolin-4-ylamino)acetic acid, reference compound]
Reply | 1.70

Ask | Identify measured log10 MIC associated with `CC(=O)OCC1=C(C(=O)O)N2C(=O)[C@@H](NC(=O)CNc3ccnc4cc(Cl)ccc34)[C@H]2SC1.Cl`
Reply | 0.49

Ask | Please report log10 MIC for the following molecule: `Cl.O=C(O)c1cn(C2CC2)c2cc(N3CCN(c4ccnc5cc(C(F)(F)F)ccc45)CC3)c(F)cc2c1=O`
Reply | -0.20

Ask | Quick one: give measured log10 MIC for O=C(O)c1cn(C2CC2)c2cc(N3CCNCC3)c(F)cc2c1=O [Ciprofloxacin, reference compound]
Reply | -1.00

Ask | Look up log10 MIC of `Cl.O=C(O)c1cn(C2CC2)c2cc(N3CCN(c4ccnc5c(Cl)cccc45)CC3)c(F)cc2c1=O` and report it.
Reply | -0.51

Ask | Kindly indicate its recorded log10 MIC. Item: `CC(=O)OCC1=C(C(=O)O)N2C(=O)[C@@H](NC(=O)C3CCN(c4ccnc5cc(Cl)ccc45)CC3)[C@H]2SC1.Cl`
Reply | 1.70

---

- System: E. faecalis VRE CIP 104676
- procedure details: Antibacterial activity (MIC/MBC)
- Assay type: cell-based, Enterococcus faecalis
- condition info: Enterococcus faecalis; E. faecalis VRE CIP 104676
readout name: MBC (µg/mL)
// note: answer is a bare numeric in µg/mL

Ask | Using known records, supply MBC for `CC(=O)OCC1=C(C(=O)O)N2C(=O)[C@@H](NC(=O)CNc3cc(C)nc4ccccc34)[C@H]2SC1`
Reply | 25

Ask | Identify the reported MBC for the following entry. CO/N=C(\C(=O)N[C@@H]1C(=O)N2C(C(=O)O)=C(CSc3nc(=O)c(=O)[nH]n3C)CS[C@H]12)c1csc(N)n1 [Ceftriaxone, reference compound]
Reply | 50

Ask | Hello, please tell me recorded MBC for this one: `CC(=O)OCC1=C(C(=O)O)N2C(=O)[C@@H](NC(=O)CNc3ccnc4cc(Cl)ccc34)[C@H]2SC1`
Reply | 50

---

- System: S. pyogenes CIP 56.41T
- procedure details: Antibacterial activity (MIC/MBC)
- Format: cell-based, Streptococcus pyogenes
- condition info: Streptococcus pyogenes, CIP56; S. pyogenes CIP 56.41T
Give MBC for every item shown.
Just the number in ng/mL, nothing appended.

Ask | Quick one: give measured MBC for `CC(=O)OCC1=C(C(=O)O)N2C(=O)[C@@H](NC(=O)CNc3ccnc4cc(Cl)ccc34)[C@H]2SC1`
Reply | 3

Ask | Return MBC for the following compound: `CC(=O)OCC1=C(C(=O)O)N2C(=O)[C@@H](NC(=O)CNc3ccnc4cc(C(F)(F)F)ccc34)[C@H]2SC1`
Reply | 3

Ask | For the compound `CC(=O)OCC1=C(C(=O)O)N2C(=O)[C@@H](NC(=O)CNc3cc(C)nc4ccccc34)[C@H]2SC1` , report MBC.
Reply | 1.5

Ask | Return the recorded MBC value; entry: CO/N=C(\C(=O)N[C@@H]1C(=O)N2C(C(=O)O)=C(CSc3nc(=O)c(=O)[nH]n3C)CS[C@H]12)c1csc(N)n1 [Ceftriaxone, reference compound]
Reply | 6

---

So I've got a bunch of compounds here, and I need their MIC values.
- Tested on: P. aeruginosa CIP 103467
- procedure details: Antibacterial activity (MIC)
- Format: cell-based
- condition info: Pseudomonas aeruginosa, CIP103467; P. aeruginosa CIP 103467; read-out: MIC
Please state the figure in µg/mL; there is no need to write the unit.

Ask | State its MIC for this compound: `Cl.O=C(O)c1cn(C2CC2)c2cc(N3CCN(CCNc4ccnc5cc(Cl)ccc45)CC3)c(F)cc2c1=O`
Reply | 5

Ask | In one line, give reported MIC of the entry O=C(O)c1cn(C2CC2)c2cc(N3CCNCC3)c(F)cc2c1=O [Ciprofloxacin, reference compound] .
Reply | 0.156

---

For each of the compounds below, state its MBC.
- System: E. faecalis VRE CIP 104676
- procedure details: Antibacterial activity (MIC/MBC)
- Format: cell-based, Enterococcus faecalis
- condition info: Enterococcus faecalis; E. faecalis VRE CIP 104676
Form entry: value (µg/mL) — number only.

Ask | Tell me MBC reported for CC(=O)OCC1=C(C(=O)O)N2C(=O)[C@@H](NC(=O)CNc3ccnc4cc(Cl)ccc34)[C@H]2SC1.Cl [PA 1089]
Reply | 12.5

Ask | Provide measured MBC value, entry: CC(=O)OCC1=C(C(=O)O)N2C(=O)[C@@H](NC(=O)CCNc3ccnc4cc(Cl)ccc34)[C@H]2SC1 [PA 1037]
Reply | 25
